Reference source for all entries: PubChem BioAssay AID1347055

# subject_of_test: Fumarate hydratase, mitochondrial (Homo sapiens)
# protocol_summary: Identification of activators of human fumarate hydratase by quantitative high-throughput screening; further: the screen sought activators but most active calls are inhibition curves; nearly all actives have a fitted effect of over 45% in size
# condition_details: FH coupled MDH/diaphorase resazurin fluorescence, 15 min; series mostly up to 79.9 µM
The whole screen tested about 54,000 compounds, of which about 120 (0.22%) were called active. About 8% were inconclusive and are not listed. The entries come from a sample that favours actives as a whole.
measurement_label: activity change, negative = inhibition

Worked cases, answers included:
compound	activity change, negative = inhibition
CCOc1ccc(-n2c(SCC(=O)NCc3ccccc3)nc3n[nH]c(C)c3c2=N)cc1	inactive
CCc1ccc(CN(Cc2ccco2)C(=O)c2ccccc2Cl)cc1	inactive
CCCN(C(=O)Cn1ncc2c([nH]c3ccc(C)cc32)c1=O)c1ccccc1C	inactive
COC(=O)c1[nH]c(=O)c2ccccc2c1-c1ccc[nH]1	inactive
CC(CNC(=O)c1nnc(Cc2cccc(F)c2)o1)c1ccccc1 (stereo unspecified)	inactive
N#CSc1cc(SC#N)c(N)nc1N	inactive
O=C(OC1CN2CCC1CC2)N1CCc2ccccc2C1c1ccccc1 (stereo unspecified)	inactive
COc1ccc(Cn2c(=O)n(-c3ccccc3C)c(=O)c3c4c(sc32)CN(C(C)=O)CC4)cc1	inactive
CC(CCC1(O)OC2CC3C4CC=C5C[C@@H](O[C@@H]6O[C@H](CO)[C@@H](O[C@@H]7O[C@@H](C)[C@H](O)[C@@H](O)[C@H]7O)[C@H](O)[C@H]6O[C@@H]6O[C@@H](C)[C@H](O)[C@@H](O)[C@H]6O)CC[C@]5(C)C4CC[C@]3(C)[C@@]2(O)[C@@H]1C)CO[C@@H]1O[C@H](CO)[C@@H](O)[C@H](O)[C@H]1O (stereo partly specified)	inactive
C=C1CCC2C(C)(COC(C)=O)CCCC2(C)C1CCC(C)CC(=O)O (stereo unspecified)	inactive

State the recorded activity change, negative = inhibition for this entry: C/C=C(/COC(=O)/C(C)=C/C)C(=O)OC/C=C/c1ccc(OC)cc1 inactive

Which activity change, negative = inhibition value belongs to C#C[C@]1(O)CC[C@H]2[C@@H]3CCC4=C/C(=N/O)CC[C@@H]4[C@H]3CC[C@@]21CC ? inactive

// activity change, negative = inhibition lookup, key: C[C@@H]1C[C@@H](O)[C@@]23CO[C@]2(CO)C[C@@H](O)CC3[C@@]12CC(c1ccoc1)OC2=O (stereo partly specified) inactive
